Source: patent US4268630A

# Tested on: Kloeckera sp. Strain A2 (NRRL Y-11,420)
# test: Oxidation of sec-alcohols to ketones by cell suspensions of yeasts
# Assay type: cell-based
# testContext: growth substrate Ethanol
readoutLabel: Conversion Rate, sec-alcohol to ketone

CCCC(C)O (stereo not shown)    1.0 μmoles/hr/mg of protein
CCC(C)O (stereo not shown)    5.7 μmoles/hr/mg of protein
CC(C)O    4.5 μmoles/hr/mg of protein

Now consider a different compound.
Input line: Give the value of Conversion Rate, sec-alcohol to ketone reported for the following: CCCCC(C)O (stereo not shown)
Output line: 0.12 μmoles/hr/mg of protein

====

# % inhibition of SADH activity values compiled below
# Test system: secondary alcohol dehydrogenase (SADH)
# test: Activity of purified secondary alcohol dehydrogenase (inhibition, substrate specificity, Km)
# Type: biochemical, Pseudomonas sp. ATCC 21439
# testContext: each inhibitor at a final concentration of 1 mM; spectrofluorometric
Number first, unit second: that is the form wanted.

Example cases with answers are listed next.
[N-]=[N+]=[N-] [Sodium azide, reference compound]    10%
[Cu+2] [cupric, reference compound]    25%
[Mg+2] [Mg^++, reference compound]    0%

Input line: Give the value of % inhibition of SADH activity reported for the following: [Co+2] [Co^++, reference compound]
Output line: 0%

Input line: Give the value of % inhibition of SADH activity reported for the following: [Fe+3] [ferric, reference compound]
Output line: 35%

Input line: Give the value of % inhibition of SADH activity reported for the following: NC(N)=S [Thiourea, reference compound]
Output line: 0%

====

# Conversion Rate, sec-alcohol to ketone values compiled below
# System: Hansenula polymorpha ATCC 26012
# test: Oxidation of sec-alcohols to ketones by cell suspensions of yeasts
# Format: cell-based
# testContext: growth substrate Methylamine

Example cases with answers are listed next.
CCCC(C)O (stereo not shown)    1.2 μmoles/hr/mg of protein
CCC(C)O (stereo not shown)    4.5 μmoles/hr/mg of protein
CC(C)O    5.2 μmoles/hr/mg of protein

Input line: Give the value of Conversion Rate, sec-alcohol to ketone reported for the following: CCCCC(C)O (stereo not shown)
Output line: 0.62 μmoles/hr/mg of protein

====

# relative percent rate of oxidation values compiled below
# Tested on: secondary alcohol dehydrogenase (SADH)
# test: Activity of purified secondary alcohol dehydrogenase (inhibition, substrate specificity, Km)
# Assay type: biochemical, Pseudomonas sp. ATCC 21439
# testContext: 2-butanol = 100%

CC=O [acetaldehyde]    4%
OC1CCCCC1 [cyclohexanol]    4%
CC(O)CCO (centres unmarked) [butane 1,3-diol]    2%

Now consider a different molecule.
Input line: Give the value of relative percent rate of oxidation reported for the following: CCCC(C)O (centres unmarked) [2-Pentanol, 2-pentanol]
Output line: 5%

====

# Test system: Pseudomonas sp. ATCC 21438
# test: Oxidation of sec-alcohols to ketones by resting cell suspension
# Assay type: cell-based
# testContext: methyl formate-grown
readoutLabel: Conversion Rates, sec-alcohol to methyl ketone (μmoles/hr/mg protein)
Quick note: give the figure in μmoles/hr/mg protein, leave out the unit.

CC(C)O    0.52
CCCCC(C)O (stereo not shown)    0.80
CCC(C)O (stereo not shown)    3.2

Input line: Give the value of Conversion Rates, sec-alcohol to methyl ketone reported for the following: CCCC(C)O (stereo not shown)
Output line: 2.0
